Hello, the source for this data is patent EP4818187A1, in case you need it.

Test system: human ovarian cancer SK-OV-3
TEST METHOD NOTES: Biological Example 5: in vivo xenograft model of human ovarian cancer SK-OV-3
Set-up: species or system Balb/c-nu nude mice
CONDITION PARAMETERS: SK-OV-3 xenograft, nude mice, 0.8 mg/kg i.v. qw×3
MEASURED ENDPOINT: Tumor weight (g, x±S.D.) (g)
The answer is to be given in g; state only the numeric part.

Which Tumor weight (g, x±S.D.) reading was recorded for the molecule CC[C@H](C)[C@@H]([C@@H](CC(=O)N1CCC[C@H]1[C@H](OC)[C@@H](C)C(=O)N[C@H](C)[C@@H](O)c1ccccc1)OC)N(C)C(=O)[C@@H](NC(=O)[C@H](C(C)C)[N+](C)(C)Cc1ccc(O[C@@H]2O[C@H](C(=O)[O-])[C@@H](O)[C@H](O)[C@H]2O)cc1OCc1cn(CCCOCC(=O)Nc2ccc(-c3ccc(/N=N/c4ccc5c(S(=O)(=O)[O-])cc(S(=O)(=O)[O-])c(N)c5c4O)c(C)c3)cc2C)nn1)C(C)C.[Na+].[Na+] [Example compound 10] ? 0.035

Which Tumor weight (g, x±S.D.) reading was recorded for the molecule CC[C@H](C)[C@@H]([C@@H](CC(=O)N1CCC[C@H]1[C@H](OC)[C@@H](C)C(=O)N[C@H](C)[C@@H](O)c1ccccc1)OC)N(C)C(=O)[C@@H](NC(=O)[C@H](C(C)C)[N+](C)(CC)Cc1ccc(O[C@@H]2O[C@H](C(=O)[O-])[C@@H](O)[C@H](O)[C@H]2O)cc1OCc1cn(CCCOCC(=O)Nc2ccc(-c3ccc(/N=N/c4ccc5c(S(=O)(=O)[O-])cc(S(=O)(=O)[O-])c(N)c5c4O)c(C)c3)cc2C)nn1)C(C)C.[Na+].[Na+] (stereo partly drawn) [Example compound 11] ? 0.011

// next entry
Which Tumor weight (g, x±S.D.) reading was recorded for the molecule CC[C@H](C)[C@@H]([C@@H](CC(=O)N1CCC[C@H]1[C@H](OC)[C@@H](C)C(=O)N[C@H](C)[C@@H](O)c1ccccc1)OC)N(C)C(=O)[C@@H](NC(=O)[C@H](C(C)C)[N+](C)(C)Cc1ccc(O[C@@H]2O[C@H](C(=O)[O-])[C@@H](O)[C@H](O)[C@H]2O)cc1OCc1cn(CCOCCC(=O)Nc2ccc(-c3ccc(/N=N/c4ccc5c(S(=O)(=O)[O-])cc(S(=O)(=O)[O-])c(N)c5c4O)c(C)c3)cc2C)nn1)C(C)C.[Na+].[Na+] [Example compound 9] ? 0.002
